Assay: Clearance in dog at 2 mg/kg, iv
Assay type: ADME, organism-based, Canis lupus familiaris
Conditions: in vivo
property-label: clearance
# number then unit; no other words

Data point: C=C(C)[C@@H]1CC[C@]2(NCCN3CCS(=O)(=O)CC3)CC[C@]3(C)[C@H](CC[C@@H]4[C@@]5(C)CC=C(C6=CC[C@](COc7ncccc7C#N)(C(=O)O)CC6)C(C)(C)[C@@H]5CC[C@]43C)[C@@H]12 ; clearance = 0.21 mL/min/kg

###

Tested on: Human immunodeficiency virus 1
Experiment: In vitro antiviral activity against fully replicating HIV1 NL4-3 harboring Gag T332S/V362I/prR41G mutant
Format: functional, organism-based
Details: Human immunodeficiency virus 1, NL4-3
property-label: log10 EC50 (log10 of the value in nM)
Base-10 log of EC50, unit nM.

Simply: C=C(C)[C@@H]1CC[C@]2(NCCN3CCS(=O)(=O)CC3)CC[C@]3(C)[C@H](CC[C@@H]4[C@@]5(C)CC=C(C6=CCC(COc7ccncc7)(C(=O)O)CC6)C(C)(C)[C@@H]5CC[C@]43C)[C@@H]12 (mixture of isomers) , Human immunodeficiency virus 1, log10 EC50 = 1.15

Record C=C(C)[C@@H]1CC[C@]2(NCCN3CCS(=O)(=O)CC3)CC[C@]3(C)[C@H](CC[C@@H]4[C@@]5(C)CC=C(C6=CCC(COc7ncccn7)(C(=O)O)CC6)C(C)(C)[C@@H]5CC[C@]43C)[C@@H]12 (mixture of isomers) ; system Human immunodeficiency virus 1; log10 EC50 = 1.10

Test item C=C(C)[C@@H]1CC[C@]2(NCCN3CCS(=O)(=O)CC3)CC[C@]3(C)[C@H](CC[C@@H]4[C@@]5(C)CC=C(C6=CCC(COc7cccnc7)(C(=O)O)CC6)C(C)(C)[C@@H]5CC[C@]43C)[C@@H]12 (mixture of isomers) ; Human immunodeficiency virus 1; reported log10 EC50 was 0.76

# C=C(C)[C@@H]1CC[C@]2(NCCN3CCS(=O)(=O)CC3)CC[C@]3(C)[C@H](CC[C@@H]4[C@@]5(C)CC=C(C6=CCC(COc7cccnn7)(C(=O)O)CC6)C(C)(C)[C@@H]5CC[C@]43C)[C@@H]12 (mixture of isomers) with Human immunodeficiency virus 1: log10 EC50 is 1.67

Entry C=C(C)[C@@H]1CC[C@]2(NCCN3CCS(=O)(=O)CC3)CC[C@]3(C)[C@H](CC[C@@H]4[C@@]5(C)CC=C(C6=CCC(COc7ccccc7)(C(=O)O)CC6)C(C)(C)[C@@H]5CC[C@]43C)[C@@H]12 (mixture of isomers) under Human immunodeficiency virus 1 had log10 EC50 of 1.44

Record C=C(C)[C@@H]1CC[C@]2(NCCN3CCS(=O)(=O)CC3)CC[C@]3(C)[C@H](CC[C@@H]4[C@@]5(C)CC=C(C6=CCC(COc7ccc(C#N)cn7)(C(=O)O)CC6)C(C)(C)[C@@H]5CC[C@]43C)[C@@H]12 (mixture of isomers) has Human immunodeficiency virus 1 log10 EC50 equal to 2.37

###

Test: Volume of distribution at steady state in rat at 1 mg/kg, iv
Assay type: ADME, organism-based
Conditions: in vivo, read-out: Vdss
property-label: Vd (L/kg)
Provide the reading as a plain figure in L/kg.

Memo: C=C(C)[C@@H]1CC[C@]2(NCCN3CCS(=O)(=O)CC3)CC[C@]3(C)[C@H](CC[C@@H]4[C@@]5(C)CC=C(C6=CC[C@](COc7ncccc7C#N)(C(=O)O)CC6)C(C)(C)[C@@H]5CC[C@]43C)[C@@H]12 , reported Vd: 0.87

###

Assay: Elimination half life in Cynomolgus monkey at 2 mg/kg, iv
Assay type: ADME, organism-based, Macaca fascicularis
Conditions: in vivo, read-out: beta t1/2 (converted)
property-label: half-life (h)
Your answer should be a plain number; it is taken to be in h.

Per the records, this molecule ( C=C(C)[C@@H]1CC[C@]2(NCCN3CCS(=O)(=O)CC3)CC[C@]3(C)[C@H](CC[C@@H]4[C@@]5(C)CC=C(C6=CC[C@](COc7ncccc7C#N)(C(=O)O)CC6)C(C)(C)[C@@H]5CC[C@]43C)[C@@H]12 ) has half-life equal to 12.3

###

Experiment: Elimination half life in dog at 2 mg/kg, iv
Format: ADME, organism-based, Canis lupus familiaris
Conditions: in vivo, read-out: beta t1/2 (converted)
property-label: half-life
Record the result as a number with its unit.

The compound listed as C=C(C)[C@@H]1CC[C@]2(NCCN3CCS(=O)(=O)CC3)CC[C@]3(C)[C@H](CC[C@@H]4[C@@]5(C)CC=C(C6=CC[C@](COc7ncccc7C#N)(C(=O)O)CC6)C(C)(C)[C@@H]5CC[C@]43C)[C@@H]12 has a reported half-life of 26.9 h

###

Experiment: Half life in normal healthy human volunteers plasma at 10 mg for 15 days and followed by 30 mg
Format: ADME, cell-free
Settings: time 15 day
property-label: half-life
Please append the unit to your numeric answer.

So for C=C(C)[C@@H]1CC[C@]2(NCCN3CCS(=O)(=O)CC3)CC[C@]3(C)[C@H](CC[C@@H]4[C@@]5(C)CC=C(C6=CC[C@](COc7ncccc7C#N)(C(=O)O)CC6)C(C)(C)[C@@H]5CC[C@]43C)[C@@H]12 , the logged half-life turned out to be 67 h

###

Assay: Metabolic stability in dog liver microsomes assessed as half life
Type: ADME, Canis lupus familiaris, Microsome
property-label: half-life

Notebook: C=C(C)[C@@H]1CC[C@]2(NCCN3CCS(=O)(=O)CC3)CC[C@]3(C)[C@H](CC[C@@H]4[C@@]5(C)CC=C(C6=CC[C@](COc7ncccc7C#N)(C(=O)O)CC6)C(C)(C)[C@@H]5CC[C@]43C)[C@@H]12 , half-life read as > 2 h

###

Test: Elimination half life in mouse at 5 mg/kg, po
Format: ADME, organism-based
Details: in vivo, read-out: beta t1/2 (converted)
property-label: half-life
Quick note: number first, unit second.

Short answer for C=C(C)[C@@H]1CC[C@]2(NCCN3CCS(=O)(=O)CC3)CC[C@]3(C)[C@H](CC[C@@H]4[C@@]5(C)CC=C(C6=CC[C@](COc7ncccc7C#N)(C(=O)O)CC6)C(C)(C)[C@@H]5CC[C@]43C)[C@@H]12 : half-life was 14.5 h

###

Test: Volume of distribution at steady state in dog at 2 mg/kg, iv
Assay type: ADME, organism-based, Canis lupus familiaris
Conditions: in vivo, read-out: Vdss
property-label: Vd (L/kg)
Express the result in L/kg but write the number alone.

Looking up C=C(C)[C@@H]1CC[C@]2(NCCN3CCS(=O)(=O)CC3)CC[C@]3(C)[C@H](CC[C@@H]4[C@@]5(C)CC=C(C6=CC[C@](COc7ncccc7C#N)(C(=O)O)CC6)C(C)(C)[C@@H]5CC[C@]43C)[C@@H]12 , I see its Vd listed as 0.43

###

Assay: Elimination half life in rat at 5 mg/kg, po
Format: ADME, organism-based
Conditions: in vivo, read-out: beta t1/2 (converted)
property-label: half-life (h)
Give the value in h but do not write h after it.

Looking up C=C(C)[C@@H]1CC[C@]2(NCCN3CCS(=O)(=O)CC3)CC[C@]3(C)[C@H](CC[C@@H]4[C@@]5(C)CC=C(C6=CC[C@](COc7ncccc7C#N)(C(=O)O)CC6)C(C)(C)[C@@H]5CC[C@]43C)[C@@H]12 , I found its half-life recorded as 8.6

###

Test: Aqueous solubility of compound in fasted state simulated intestinal fluid (FaSSIF) at pH 6.6
Format: physicochemical
property-label: solubility (mg/mL)
Note: unit mg/mL is implicit; provide only the numeric part.

Measured solubility of C=C(C)[C@@H]1CC[C@]2(NCCN3CCS(=O)(=O)CC3)CC[C@]3(C)[C@H](CC[C@@H]4[C@@]5(C)CC=C(C6=CC[C@](COc7ncccc7C#N)(C(=O)O)CC6)C(C)(C)[C@@H]5CC[C@]43C)[C@@H]12 : 19

Ref: ChEMBL document CHEMBL6071211
